- Assay System: T1, cynomolgus monkey IL-33 expressed with a C-terminal hexahistidine tag (cynomolgus monkey)
- T1 construct: also called MfIL-33-6His; Mf-IL-33-6His
- T1 chain: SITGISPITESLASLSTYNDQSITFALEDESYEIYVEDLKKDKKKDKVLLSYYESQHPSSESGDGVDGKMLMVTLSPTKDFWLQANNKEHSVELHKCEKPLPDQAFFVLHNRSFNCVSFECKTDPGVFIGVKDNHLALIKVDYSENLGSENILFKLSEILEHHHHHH
- Method: SPR 37C pH7.4, mAb captured
koff listing for selected binders.
Give a bare numeral; the unit s⁻¹ is implied.

Solved cases (2 shown):
Binder | Recorded Number
H4H9675P (antibody, human IgG4, V domains shown, Human IgG4 Fc (H4H)) VH: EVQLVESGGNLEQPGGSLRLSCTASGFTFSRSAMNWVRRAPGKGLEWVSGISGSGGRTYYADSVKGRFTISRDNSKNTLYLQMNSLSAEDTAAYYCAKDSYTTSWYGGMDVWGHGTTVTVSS VL: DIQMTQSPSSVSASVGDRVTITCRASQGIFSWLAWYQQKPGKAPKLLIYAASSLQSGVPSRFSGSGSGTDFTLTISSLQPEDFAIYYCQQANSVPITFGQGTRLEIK | 0.00491
H4H9667P (antibody, human IgG4, V domains shown, Human IgG4 Fc (H4H)) VH: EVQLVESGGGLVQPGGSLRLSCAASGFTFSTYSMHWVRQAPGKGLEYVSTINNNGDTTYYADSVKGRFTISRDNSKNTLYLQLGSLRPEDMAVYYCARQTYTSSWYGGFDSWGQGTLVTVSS VL: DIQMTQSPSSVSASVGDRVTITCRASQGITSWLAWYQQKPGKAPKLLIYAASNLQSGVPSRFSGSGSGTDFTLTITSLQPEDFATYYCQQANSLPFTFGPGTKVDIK | 0.00317

Now for the binder whose koff we want.
Assign koff to the following record: H4H9659P (antibody, human IgG4, V domains shown, Human IgG4 Fc (H4H)) VH: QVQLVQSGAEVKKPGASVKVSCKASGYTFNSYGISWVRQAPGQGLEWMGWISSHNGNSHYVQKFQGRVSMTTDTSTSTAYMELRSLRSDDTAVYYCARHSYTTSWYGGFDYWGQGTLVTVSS VL: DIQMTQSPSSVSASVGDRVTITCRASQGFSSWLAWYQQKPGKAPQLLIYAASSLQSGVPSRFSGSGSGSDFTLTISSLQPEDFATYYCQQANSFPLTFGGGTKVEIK
0.00186

Origin of the recorded values: patent US20160362487A1
